# experimentSummary: Cytotoxicity test (MTS)
# Type: cell-based
# protocolConditions: human, MRC-5 normal lung fibroblasts; MRC-5 cells, 72 h, MTS
Numbered stars: 1 amine (or outer) side, 2 acyl side, 3 side chain; on linkers, the order of the positions; unused ones are H or OH. Square brackets hold non-standard residues; d marks the D form. Peptide text beside a SMILES is read from it. * marks the point of attachment. ξ: configuration not given here. X1 = NCC(O)CCC(N[*:1])C(=O)[*:2]; ΔZArg = N=C(N)NCC/C=C(\N)C(=O)O; ξDab(3-OH) = NCC(O)C(N)C(=O)O; Orn = NCCC[CH](N)C(=O)O; NH(CH2)4NH2 = NCCCCN*
attributeMeasured: CC50 at 72 h

N=C(N)NCC/C=C(\NC(=O)C(CCCCN)NC(=O)C(Cc1cnc[nH]1)NC(=O)C1CCCN1C(=O)C(CCCN)NC(=O)CNC(=O)C(NC(=O)C(NC(=O)C(N)CCCCN)C(O)CN)C(O)CN)C(=O)NC(CCC(O)CN)C(=O)NCCCCN (stereo not drawn) [Odilomycin B] (H-K[ξDab(3-OH)][ξDab(3-OH)]G[Orn]PHK[ΔZArg][X1]-{NH(CH2)4NH2}; configuration not given here)
> 100 µg/mL
N=C(N)NCC/C=C(\NC(=O)C(CCCCN)NC(=O)C(Cc1cnc[nH]1)NC(=O)C1CCCN1C(=O)C(CCCN)NC(=O)CNC(=O)C(NC(=O)C(NC(=O)C(N)CCCCN)C(O)CN)C(O)CN)C(=O)NC(CCCCN)C(=O)NCCCCN (stereo not drawn) [Odilomycin C] (H-K[ξDab(3-OH)][ξDab(3-OH)]G[Orn]PHK[ΔZArg]K-{NH(CH2)4NH2}; configuration not given here)
> 100 µg/mL
N=C(N)NCC/C=C(\NC(=O)C(CCC(O)CN)NC(=O)C(Cc1cnc[nH]1)NC(=O)C1CCCN1C(=O)C(CCCN)NC(=O)CNC(=O)C(NC(=O)C(NC(=O)C(N)CCCCN)C(O)CN)C(O)CN)C(=O)NC(CCC(O)CN)C(=O)NCCCCN (stereo not drawn) [Odilomycin A] (H-K[ξDab(3-OH)][ξDab(3-OH)]G[Orn]PH[X1][ΔZArg][X1]-{NH(CH2)4NH2}; configuration not given here)
> 100 µg/mL
